The reported measurements were obtained from patent US20090176804A1.

Below, each entry is listed with its recorded pIC50.
molecular target: DP receptor (Homo sapiens); construct: the human cell line LS174T, which expresses the endogenous DP receptor; endogenous in cells; assay: SPA cAMP assay in human LS174 T cells (human DP functional assay); conditions: concentration of the compound producing 50% inhibition in the SPA cAMP assay in human LS174 T cells; PGD2 15 nM final
Sequence (Q13258 whole entry): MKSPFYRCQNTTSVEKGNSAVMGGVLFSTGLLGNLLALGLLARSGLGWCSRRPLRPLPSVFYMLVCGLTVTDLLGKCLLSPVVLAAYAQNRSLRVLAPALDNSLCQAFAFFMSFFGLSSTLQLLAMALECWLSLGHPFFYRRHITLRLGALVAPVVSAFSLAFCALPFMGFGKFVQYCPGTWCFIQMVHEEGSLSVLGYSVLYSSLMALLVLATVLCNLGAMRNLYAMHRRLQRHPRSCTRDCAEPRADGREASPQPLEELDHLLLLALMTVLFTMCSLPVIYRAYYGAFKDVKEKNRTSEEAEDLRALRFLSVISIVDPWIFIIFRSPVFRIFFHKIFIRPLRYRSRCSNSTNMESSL
pIC50 is defined as minus the log10 of a concentration measured in mol/L.

COc1cccc(CCNS(=O)(=O)c2cc(-c3[nH]c4ccccc4c3CC(=O)O)ccc2Cl)c1 [Example 2(b)]: 8.48
O=C(O)Cc1c(-c2ccc(Cl)c(S(=O)(=O)Cc3cccc(Cl)c3)c2)[nH]c2ccccc12 [Example 15]: 6.97
CC(C(=O)O)c1c(-c2ccc(Cl)c(S(=O)(=O)NC3CCCCC3)c2)[nH]c2ccccc12 (stereo not shown) [Example 14]: 8.28

Please examine the following record next.
Query string: Request the reported pIC50 associated with O=C(O)Cc1c(-c2ccc(Cl)c(S(=O)(=O)NCc3cc(Cl)cc(Cl)c3)c2)[nH]c2ccccc12 [Example 1(c)]
Result string: 7.92
